- SUBJECT OF TEST: c-Rel (Homo sapiens)
- Sequence (Q04864 whole entry): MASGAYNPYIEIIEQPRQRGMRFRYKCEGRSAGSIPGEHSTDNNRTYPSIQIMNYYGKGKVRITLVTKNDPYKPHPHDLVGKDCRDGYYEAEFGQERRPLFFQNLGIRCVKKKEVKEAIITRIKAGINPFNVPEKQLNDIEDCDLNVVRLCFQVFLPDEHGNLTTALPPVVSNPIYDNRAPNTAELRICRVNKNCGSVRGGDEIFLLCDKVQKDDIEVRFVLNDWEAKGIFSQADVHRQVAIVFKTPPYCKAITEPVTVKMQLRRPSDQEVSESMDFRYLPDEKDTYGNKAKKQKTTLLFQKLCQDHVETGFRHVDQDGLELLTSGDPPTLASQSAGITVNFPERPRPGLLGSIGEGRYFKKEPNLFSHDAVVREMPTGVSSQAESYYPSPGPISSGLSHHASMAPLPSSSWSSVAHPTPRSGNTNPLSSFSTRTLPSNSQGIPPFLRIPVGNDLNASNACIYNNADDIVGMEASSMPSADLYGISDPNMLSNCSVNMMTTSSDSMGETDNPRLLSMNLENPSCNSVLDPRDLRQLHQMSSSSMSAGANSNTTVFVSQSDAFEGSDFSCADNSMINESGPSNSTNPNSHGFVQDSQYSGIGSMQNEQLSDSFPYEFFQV
- TEST SUMMARY: TransAM NF-κB Family DNA Binding ELISA, c-Rel
REPORTED METRIC: inhibition at 5 µM (%)

Field: example entries. Status: answers known.
>>> value_observed("CC(C)OC(=O)OC1C(NC(=O)c2ccccc2O)=CC(=O)C2OC21 (racemic)")
2
>>> value_observed("CCCCC(CC)C(=O)Oc1ccccc1C(=O)NC1=CC(=O)C2OC2C1O (racemic)")
9

[I] CCCC(C)C(=O)Oc1ccccc1C(=O)NC1=CC(=O)C2OC2C1O (racemic)
[II] O=C(CC1CCCCC1)Oc1ccccc1C(=O)NC1=CC(=O)C2OC2C1O (racemic)
Exercise: Returns: the argument ( I or II ) having the larger inhibition at 5 µM. Let me know the label of the one you choose.
Solution: I
(I: 9%, II: 3%)
